# reported PBM binding z-score; entries follow
- System: PPARg DBDmut:RXRa IVT, anti-PPARg (DBD mutation: PPARg1 K132A/R137A, NR concentration 270 nM, RXRa partner concentration 90 nM)
- run description: PBM binding z-score (relative to random genomic background probes); higher = stronger binding; sequences stand for … in GC…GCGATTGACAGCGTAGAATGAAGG
experimental endpoint: PBM binding z-score

[[record]]
residue_codes = "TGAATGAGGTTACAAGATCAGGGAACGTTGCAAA"
value_reported = 0.903

[[record]]
residue_codes = "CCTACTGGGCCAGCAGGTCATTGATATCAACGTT"
value_reported = -0.155

[[record]]
residue_codes = "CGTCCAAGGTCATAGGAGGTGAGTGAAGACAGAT"
value_reported = 0.426

[[record]]
residue_codes = "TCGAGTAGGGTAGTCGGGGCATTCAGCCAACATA"
value_reported = -1.17

[[record]]
residue_codes = "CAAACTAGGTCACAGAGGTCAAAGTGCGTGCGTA"
value_reported = 1.58

[[record]]
residue_codes = "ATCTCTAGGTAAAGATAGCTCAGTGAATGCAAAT"
value_reported = 1.58

[[record]]
residue_codes = "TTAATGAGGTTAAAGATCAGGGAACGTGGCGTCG"
value_reported = 2.12

[[record]]
residue_codes = "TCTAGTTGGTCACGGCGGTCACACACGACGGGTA"
value_reported = 1.09

[[record]]
residue_codes = "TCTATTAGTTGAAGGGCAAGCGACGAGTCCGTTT"
value_reported = 0.42

[[record]]
residue_codes = "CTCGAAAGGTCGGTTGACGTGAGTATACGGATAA"
value_reported = 0.821

[[record]]
residue_codes = "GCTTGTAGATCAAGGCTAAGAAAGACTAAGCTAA"
value_reported = -0.0292

[[record]]
residue_codes = "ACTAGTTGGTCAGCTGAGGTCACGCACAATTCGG"
value_reported = 0.779


Where do the numbers come from? From the supplement of paper PMC6555819.
